Source listed as ChEMBL document CHEMBL4689842.

# Tested on: Fibroblast
# assay: Multiplex assay against human fibroblast
# Format: toxicity, cell-based
# cond: 12 h, 10 µM, compound concentration 10 uM, replicate 2
metric_name: Population Hoechst High Intensity Objects (%)

Example molecules with recorded Population Hoechst High Intensity Objects (%):
molecule	tested_on	result
Cc1ccc(C)c(Oc2ccncc2C(=O)N2CCN(C3CC3)c3ccccc32)c1	Fibroblast	3%
COc1cc2ncn(-c3cc(OCc4ccccc4C(F)(F)F)c(C(N)=O)s3)c2cc1OC [GW843682X]	Fibroblast	6%
CCc1nn(CCCN2CCN(c3cccc(Cl)c3)CC2)c(=O)n1CCOc1ccccc1.Cl [NEFAZODONE HYDROCHLORIDE]	Fibroblast	3%
CC(C)OC(=O)N1CCC(Oc2ncnc3c2cnn3-c2ccc(S(C)(=O)=O)cc2F)CC1	Fibroblast	6%
O=c1[nH]c2ccccc2n1C1CCN(Cc2ccc(-c3[nH]c4cc5ncnc5cc4nc3-c3ccccc3)cc2)CC1	Fibroblast	48%

Reported Population Hoechst High Intensity Objects (%) for `C[C@]12CC[C@@H]3c4ccc(O)cc4CC[C@H]3[C@@H]1CC[C@@H]2O` was 8%

Reported Population Hoechst High Intensity Objects (%) for `Cc1c[nH]c2nccc(Oc3c(F)cc(Nc4cc(Cl)nc(N)n4)cc3F)c12` was 6%

Reported Population Hoechst High Intensity Objects (%) for `CNC(=O)Nc1ccc2c(c1)[C@@]1(CC2)OC(=O)N(CC(=O)N(Cc2ccc(F)cc2)[C@@H](C)C(F)(F)F)C1=O` was 29%
